# tested-on: Pseudomonas aeruginosa elastase (LasB) (Pseudomonas aeruginosa, UniProt P14756)
# Sequence (P14756 198-498): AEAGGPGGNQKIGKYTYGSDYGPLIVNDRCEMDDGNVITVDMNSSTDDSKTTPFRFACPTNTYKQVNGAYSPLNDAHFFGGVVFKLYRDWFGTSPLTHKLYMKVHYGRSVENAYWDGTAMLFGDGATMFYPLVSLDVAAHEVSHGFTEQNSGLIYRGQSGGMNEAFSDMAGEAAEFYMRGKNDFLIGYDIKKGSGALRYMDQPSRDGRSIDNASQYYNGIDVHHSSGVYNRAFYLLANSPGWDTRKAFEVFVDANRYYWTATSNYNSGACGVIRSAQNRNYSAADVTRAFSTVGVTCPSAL
# assay-name: biochemical
# Type: biochemical
recorded-metric: IC50 (µM)

[[record]]
input_smiles = "CC(C)c1cccc(=O)c(O)c1"
tested_on = "Pseudomonas aeruginosa elastase (LasB) (Pseudomonas aeruginosa, UniProt P14756)"
recorded_number = 1340

